Test system: Pan troglodytes
Assay: Natriuretic activity in chimpanzee assessed as per min at 5 mg/kg, po
Type: functional
Please note: Activity exactly at 400 uEq is 0.0. Only values below 400 uEq get 1.0.

compound="CC1(c2ccc(S(N)(=O)=O)cc2)Cc2cc(OCC(=O)O)c(Cl)c(Cl)c2C1=O (stereo not given)" label=0.0
compound="NS(=O)(=O)c1cc2c(cc1Cl)NCNS2(=O)=O [HYDROCHLOROTHIAZIDE]" label=1.0
compound="CC1(c2ccc(CN)cc2)Cc2cc(OCC(=O)[O-])c(Cl)c(Cl)c2C1=O.[Na+] (stereo not given)" label=1.0
compound="COc1ccc(C2(C)Cc3cc(OCC(=O)O)c(Cl)c(Cl)c3C2=O)cc1 (stereo not given)" label=0.0
compound="CC(=O)c1ccc(C2(C)Cc3cc(OCC(=O)O)c(Cl)c(Cl)c3C2=O)cc1 (stereo not given)" label=0.0
compound="CC1(c2ccc(Br)cc2)Cc2cc(OCC(=O)O)c(Cl)c(Cl)c2C1=O (stereo not given)" label=1.0
compound="CC1(c2ccc(N)cc2)Cc2cc(OCC(=O)O)c(Cl)c(Cl)c2C1=O (stereo not given)" label=1.0
compound="CC1(c2cccs2)Cc2cc(OCC(=O)O)c(Cl)c(Cl)c2C1=O (stereo not given)" label=0.0
compound="CC1(c2ccc(O)cc2)Cc2cc(OCC(=O)O)c(Cl)c(Cl)c2C1=O (stereo not given)" label=1.0

For the next question, use this compound.
Hello, I'm reviewing records and need to know if Activity of O=C(O)COc1cc2c(c(Cl)c1Cl)C(=O)C1(c3ccccc3)CCCCC21 (stereo not given) is below 400 uEq. Could you check?
1.0

----------
System: Pan troglodytes
Test: Natriuretic activity in chimpanzee assessed as per min at 5 mg/kg, po
Assay type: functional
Test readout: log10 Activity (log10 of the value in uEq)
Answers are given as log10 of Activity in uEq.

A selection of reference data follows.
molecule="NS(=O)(=O)c1cc(C(=O)O)c(NCc2ccco2)cc1Cl [FUROSEMIDE]" test_readout="log10 Activity" value=3.01
molecule="CC1(c2ccccc2)Cc2cc(OCc3nnn[nH]3)c(Cl)c(Cl)c2C1=O (centres undefined)" test_readout="log10 Activity" value=1.64
molecule="CC1(c2ccc(Cl)cc2)Cc2cc(OCC(=O)O)c(Cl)c(Cl)c2C1=O (centres undefined)" test_readout="log10 Activity" value=2.48
molecule="CC1(c2ccc(F)cc2)Cc2cc(OCC(=O)O)c(Cl)c(Cl)c2C1=O (centres undefined)" test_readout="log10 Activity" value=2.49
molecule="CC1(c2ccc([N+](=O)[O-])cc2)Cc2cc(OCC(=O)O)c(Cl)c(Cl)c2C1=O (centres undefined)" test_readout="log10 Activity" value=2.25

I have 4 molecules here; please give me log10 Activity for each one.
1. CCC1(c2ccccc2)Cc2cc(OCC(=O)O)c(Cl)c(Cl)c2C1=O (centres undefined)
2. O=C(O)COc1cc2c(c(Cl)c1Cl)C(=O)C(c1ccccc1)(C1CCCC1)C2 (centres undefined)
3. O=C(O)COc1cc2c(c(Cl)c1Cl)C(=O)C(c1ccccc1)(c1ccccc1)C2
4. Cc1c(OCC(=O)O)cc2c(c1Cl)C(=O)C(C)(c1ccccc1)C2 (centres undefined)

1: 2.57; 2: 1.67; 3: 1.28; 4: 2.68
